- Tested on: HL-60(TB) leukemia
- protocolNotes: NCI tumour cell line growth inhibition, 48 h
Where a SMILES comes first, the peptide text is derived from it. The star is where a group is joined. Boc = CC(C)(C)OC(=O)*
measurementLabel: TGI

>>> df
                                    compound  measurementlabel   measured
 0  Cc1ccc(Nc2nc(C)c(C(=O)CC(=O)C(=O)Nc3ccc(Cl)cc3)s2)cc1               TGI   > 100 µM
 1             CNC(=S)N/N=C(\C)c1cc(OC)ccc1O               TGI   > 100 µM
 2  O=C(Nc1nc2ncn(CCNCCn3cnc4nc(NC(=O)c5ccccc5)[nH]c(=O)c43)c2c(=O)[nH]1)c1ccccc1               TGI   > 100 µM
 3                 Cc1ccc(C(N)=Nc2ccccc2)cc1               TGI   > 100 µM
 4                           O=c1ssc2ncccc12               TGI   > 100 µM
 5  Oc1c(C(O)c2ccccn2)ccc2ccccc12 (configuration not stated)               TGI    42.1 µM
 6  O=C1CC[C@@]2(O)[C@H]3Cc4ccc(-c5cccc(O)c5)c5c4[C@@]2(CCN3CC2CC2)[C@H]1O5               TGI    4.92 µM
 7        N#Cc1ccc(Oc2nc3ccccc3nc2C(=O)O)cc1               TGI   > 100 µM
 8  CC(NNC(=S)N1CCCCCC1)c1cccnn1 (configuration not stated)               TGI  > 32.2 µM
 9  O=CC1C(Cl)=Nc2nc3ccccc3n2C1c1ccc([N+](=O)[O-])cc1 (configuration not stated)               TGI    20.2 µM
10                     CN(C)CCc1ccc(Cl)cc1Cl               TGI   > 100 µM
11      CC(C)=CCC/C(C)=C/CC/C(C)=C/CCN(C)CCO               TGI    3.68 µM
12  CCOc1cc(C(c2c(O)c3ccccc3oc2=O)c2c(O)c3ccccc3oc2=O)ccc1OC               TGI    52.4 µM
13  O=C(O[C@H]1CN[C@H](C#Cc2cc3ncnc(Nc4ccc5c(cnn5Cc5ccccc5)c4)c3s2)C1)N1CCOCC1               TGI  > 20.4 µM
14  CC(C)(C)c1cc(Cc2ccc([N+](C)(C)C)cc2)c(O)c(C(C)(C)C)c1               TGI    8.27 µM
15  CC(NC(=O)OC(C)(C)C)C(=O)NC(Cc1ccccc1)C(=O)NCC(=O)O (stereo not drawn) (Boc-Ala-Phe-Gly-OH; configuration not given here)               TGI   > 100 µM
16  COC(=O)c1nn(-c2ccccc2)c(=O)cc1N=[N+]=[N-]               TGI   > 100 µM
17              CC1=C(C)C(=O)C2=C(OCCO2)C1=O               TGI      15 µM
18  COc1cc(/C=C/c2ccc(/C=C/c3cc(OC)c(OC)c(OC)c3)cc2)cc(OC)c1OC               TGI   > 100 µM
19   CC(C)OC(=O)c1ccc(CCc2cc(O)c(Br)cc2O)cc1               TGI    38.9 µM
20    O=c1[nH]c2ccc(C(F)(F)F)cc2nc1Cc1ccccc1               TGI   > 100 µM
21       CC[N+](CC)(CC)Cc1cc2ccccc2n1C(=O)OC               TGI   > 100 µM

###

- Test system: MDA-MB-435
- protocolNotes: NCI tumour cell line growth inhibition, 48 h
Reported log10(TGI) values for the following compounds.
measurementLabel: log10(TGI) (log10 of the value in µM)

>>> df
                                    compound  measurementlabel  measured
 0  CCOc1ccc2nc(S/C(=C/C=C(C#N)C#N)c3ccc(Cl)cc3)sc2c1        log10(TGI)      0.99
 1  CC1=NN(c2cccc(Cl)c2)C2(SCC(=O)N2c2nc3ccccc3s2)/C1=C\c1ccccc1 (stereo unspecified)        log10(TGI)      1.59
 2  C=C(CN(C)C)C(=O)c1ccc(OC2OC(COC(C)=O)C(OC(C)=O)C(OC(C)=O)C2OC(C)=O)cc1 (stereo unspecified)        log10(TGI)      1.15
 3  COc1ccc(C(=O)N/N=C2\C(=O)c3c(C)cc(C)cc3CC2(C)C)cc1        log10(TGI)      1.55
 4  CCCCCc1cc2cc3c(c(O)c2c(=O)[nH]1)C1(CC3)C(O)=c2c(=O)c3c(=O)cc(OC)c(=O)c=3c(=O)c2=C1O (stereo unspecified)        log10(TGI)      0.59
 5  CCOc1cc(C(c2c(O)c3ccccc3oc2=O)c2c(O)c3ccccc3oc2=O)ccc1OC        log10(TGI)      1.51
 6  Cc1ccc(S(=O)(=O)NC2C(=O)c3ccccc3C(=O)C2n2ccnc2)cc1 (stereo unspecified)        log10(TGI)      1.52
 7  CCc1c2c(nc3ccc(OC(=O)NCc4ccc(B5OC(C)(C)C(C)(C)O5)cc4)cc13)-c1cc3c(c(=O)n1C2)COC(=O)[C@]3(O)CC        log10(TGI)      0.43
 8  CN1CCN(c2ccc(N3Cc4ccccc4OC4=C3C(=O)c3c(O)ccc(O)c3C4=O)cn2)CC1        log10(TGI)     -0.24
 9  CCOc1ccc(N=NC2C(=O)N(C(=O)CC(=O)Nc3ccc(C)cc3)N=C2C)cc1 (stereo unspecified)        log10(TGI)      1.04
10  Cc1nc2c([nH]c1C)c(O)cc1c3c(nc12)C(=O)CCC3        log10(TGI)      0.31
11  O=C(CCN1CCCCC1)Nc1ccc2sc3ccccc3c(=O)c2n1        log10(TGI)      1.41

###

- Test system: NCI-H23 lung
- protocolNotes: NCI tumour cell line growth inhibition, 48 h
Where a SMILES comes first, the peptide text is derived from it. [ ]: non-standard residue; d: D form. The star is where a group is joined. Phe(4-NO2) = N[CH](Cc1ccc([N+](=O)[O-])cc1)C(=O)O; Boc = CC(C)(C)OC(=O)*; OtBu = CC(C)(C)O*
Each entry below lists one item and its recorded TGI value.

compound	TGI
CCC1=C(C)c2cc3[n-]c(cc4nc(c(C=O)c5[n-]c(cc1n2)c(C)c5CC)C(C)=C4CC)c(C)c3CC.[Ni+2]	> 100 µM
Oc1ccccc1N=Cc1c(O)ccc2ccccc12	49.8 µM
CCN(CC)CCNC(=O)c1cn2ncnc(Oc3ccc(NC(=O)Nc4ccc(Cl)c(C(F)(F)F)c4)cc3)c2c1C	3.49 µM
CCC(=O)O[C@H]1CC[C@H]2[C@@H]3CCC4=CC(=O)C=C[C@]4(O)[C@H]3CC[C@]12C	> 100 µM
CC1(C)COC2(OC1)C1=NS(=O)(=O)CC13CCC2C3(C)C (stereo not drawn)	> 100 µM
COc1cc(-c2cc(/C=C/C(=O)c3ccc(N)cc3)[nH]n2)cc(OC)c1OC	6.79 µM
Cc1cc(C)c(C#N)c(SCC(=O)c2sc3c(C#N)c(C)cc(C)[n+]3c2[O-])n1	> 100 µM
COC(=O)[C@@]12CCCC(=O)[C@@H]1[C@H]1CCC[C@H]12	> 100 µM
O=c1n(N=S(=O)(c2ccccc2)c2ccccc2)c(=O)n2n1C1C=CC2CC1	> 100 µM
CC(=O)N1N=C(c2cc(C)ccc2O)CC1c1cccc(Cl)c1 (stereo not drawn)	68.1 µM
N#Cc1ccc(Oc2nc3ccccc3nc2C(=O)O)cc1	> 100 µM
O=c1c(O)c(-c2ccccc2)n(O)c2ccc(Cl)cc12	> 100 µM
CCOCc1cc(=O)c2c(O)cc3c(c2o1)CCC(C)(C)O3	> 100 µM
Clc1ccc(Nc2nn3c(CCCCCCCCc4nnc5sc(Nc6ccc(Cl)cc6)nn45)nnc3s2)cc1	> 100 µM
COc1ccc2nc3c([N+](=O)[O-])ccc4c3c(c2c1)N(CCCN(C)C)C(=S)N4CCCN(C)C	30 µM
O=C(Nc1ccccc1)c1cc(S(=O)(=O)Nc2nc3ncccc3[nH]2)c(SSc2cc(Cl)c(C(=O)Nc3ccccc3)cc2S(=O)(=O)Nc2nc3ncccc3[nH]2)cc1Cl	> 100 µM
N#Cc1cc(-c2nc3ccc(F)cc3s2)ccc1N	> 100 µM
Cc1ccccc1OCC(COC(=O)Nc1ccccc1)OC(=O)Nc1ccccc1 (stereo not drawn)	> 100 µM
COc1ccc(NC(=S)N=Nc2c(O)[nH]c3ccccc23)cc1	> 100 µM
CCOC(=O)c1ccc2[nH]c(O)c(C(=Nc3ccc(N(C)C(=O)CN4CCN(C)CC4)cc3)c3ccccc3)c2c1	2.23 µM
CCCCCCCCCCCc1noc2c1C(=O)C(O)CC2 (stereo not drawn)	31.9 µM
CCOc1ccc2nc(S/C(=C/C=C(C#N)C#N)c3ccc(Cl)cc3)sc2c1	10.1 µM
COc1ccc(N2C(=O)CC(=O)N(C(=O)CCCCCCCCC(=O)N3C(=O)CC(=O)N(c4ccc(OC)cc4)C3=S)C2=S)cc1	> 100 µM
CN1C(=O)/C(=C/c2c(Cl)[nH]c3ccccc23)c2ccccc21	> 100 µM
CC1=C(C(=O)Nc2cc(F)c(F)cc2F)C(c2ccc3c(c2)OCO3)C(C(=O)Nc2cc(F)c(F)cc2F)=C(C)N1	71.1 µM
S=c1[nH]n2c(Cc3ccccc3)nnc2s1	> 100 µM
NC1=NS(=O)(=O)Nc2nc(-c3ccccc3)c(-c3ccccc3)nc21	> 100 µM
O=P(O)(O)OC1OC(CO)C(O)C(O)C1O (stereo not drawn)	> 100 µM
Brc1ccc2[nH]cc([C@H]3CN[C@@H](c4c[nH]c5ccc(Br)cc45)CN3)c2c1	3.62 µM
COc1ccc(N=Nc2c(O)ccc3ccccc23)cc1	85.2 µM
CC(NNC(=S)N1CCCCCC1)c1cccnn1 (stereo not drawn)	> 100 µM
COc1ccc2cc(C(=O)Nc3ccc(O)c(C(=O)O)c3)ccc2c1OC	> 100 µM
CC(C)CCC[C@@H](C)[C@H]1CCC2C3=CCn4c(=O)ccc(=O)n4C3CC[C@@]21C (stereo partly drawn)	4.18 µM
O=C(CN1CCN(c2ccccc2)CC1)c1ccc2[nH]c(=O)oc2c1	> 100 µM
N#CC(/C(=N/N=C(N)N)C(=O)Nc1ccccc1[N+](=O)[O-])c1nc(-c2ccc([N+](=O)[O-])cc2)cs1 (stereo not drawn)	> 100 µM
O=S(=O)(O)c1ccc(N=Nc2ccc(N=Nc3c(O)ccc4ccccc34)c(S(=O)(=O)O)c2)cc1	> 100 µM
CCCCCCCc1c(Cl)nc(Cl)nc1Cl	10.2 µM
CC(=O)NC(CCC(=O)OC(C)(C)C)C(=O)NC(CCC(=O)OC(C)(C)C)C(=O)NC(Cc1ccc([N+](=O)[O-])cc1)C(=O)NC(CCCCNC(=O)OC(C)(C)C)C(=O)NC(CCCCNC(=O)OC(C)(C)C)C(=O)NCC(=O)O (stereo not drawn) (Ac-E(OtBu)E(OtBu)[Phe(4-NO2)]K(Boc)K(Boc)G-OH; configuration not given here)	> 100 µM

Origin of measurements: PubChem BioAssay (NCI)
